Quick record of muscarinic M3 receptor-positive allosteric modulator activity, 10 μM (-fold shift) values for human muscarinic M3 receptor (Homo sapiens).

CC(C(=O)O)N1CCN(c2cnc(C(=O)Nc3nc(-c4cc(Cl)cc(C(F)(F)F)c4)c(CN4CCC[C@H]4C)s3)cn2)CC1 (stereo partly shown)
178 -fold shift

Test item "C[C@@H]1CN(c2cnc(C(=O)Nc3nc(-c4cc(Cl)cs4)c(CN4CCC[C@H]4C)s3)cn2)CCN1CCC(=O)O" ; human muscarinic M3 receptor (Homo sapiens); reported muscarinic M3 receptor-positive allosteric modulator activity, 10 μM (-fold shift) was 171 -fold shift

Record for "COc1c(Cl)cc(-c2nc(NC(=O)c3cnc(N4CCN(CCC(=O)O)CC4)cn3)sc2CN2CCC[C@H]2C)cc1Cl" under target or system human muscarinic M3 receptor (Homo sapiens): muscarinic M3 receptor-positive allosteric modulator activity, 10 μM (-fold shift) reported as 224 -fold shift

Record "C[C@@H]1CCCN1Cc1sc(NC(=O)c2cnc(N3CCN(CCC(=O)O)CC3)cn2)nc1-c1cc(Br)cs1" has human muscarinic M3 receptor (Homo sapiens) muscarinic M3 receptor-positive allosteric modulator activity, 10 μM (-fold shift) equal to 121 -fold shift

====

# human c-Mpl-introduced Ba/F3 cell proliferative activity EC30 per record follows
# tested_system: human c-Mpl-introduced Ba/F3 cell (Homo sapiens)
# Construct: expressed in transfected cells
# Sequence (P40238 26-635): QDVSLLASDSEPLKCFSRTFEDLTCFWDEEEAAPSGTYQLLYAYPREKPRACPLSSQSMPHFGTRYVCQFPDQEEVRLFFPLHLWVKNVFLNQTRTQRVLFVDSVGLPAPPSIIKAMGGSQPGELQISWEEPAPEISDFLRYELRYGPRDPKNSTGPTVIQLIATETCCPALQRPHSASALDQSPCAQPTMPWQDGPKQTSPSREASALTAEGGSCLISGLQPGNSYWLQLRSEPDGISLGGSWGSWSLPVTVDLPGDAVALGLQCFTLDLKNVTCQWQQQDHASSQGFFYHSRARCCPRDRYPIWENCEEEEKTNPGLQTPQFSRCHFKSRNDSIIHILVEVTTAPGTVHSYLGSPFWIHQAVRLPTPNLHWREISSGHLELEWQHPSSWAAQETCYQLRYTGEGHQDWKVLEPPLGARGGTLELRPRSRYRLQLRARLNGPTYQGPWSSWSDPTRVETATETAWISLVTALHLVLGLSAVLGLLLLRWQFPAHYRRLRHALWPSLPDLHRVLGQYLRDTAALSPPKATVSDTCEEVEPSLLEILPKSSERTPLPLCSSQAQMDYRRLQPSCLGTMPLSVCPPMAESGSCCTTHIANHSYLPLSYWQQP
# assay_comment: Test Example 2: human c-Mpl-introduced Ba/F3 cell proliferative activity
# Assay type: cell-based
# experimental_parameters: concentration exhibiting 30% proliferation; 100% = positive control (Example 315 of Patent Document 1) at 1 μM

Here are 5 compounds together with their reported answers.
CN(Cc1sc(NC(=O)c2cnc(N3CCN(CCC(=O)O)CC3)cn2)nc1-c1cc(F)cc(C(F)(F)F)c1)CC1CC1
>10 µM
C[C@@H]1CCCN1Cc1sc(NC(=O)c2cnc(N3CCN(CCC(=O)O)CC3)cn2)nc1-c1cc(C2CC2)cc(C(F)(F)F)c1
>10 µM
CC[C@@H]1CCCN1Cc1sc(NC(=O)c2cnc(N3CCN(CCC(=O)O)C[C@H]3C)cn2)nc1-c1ccc(OC(C)C)c(C(F)(F)F)c1
>10 µM
CC[C@@H]1CCCN1Cc1sc(NC(=O)c2cnc(N3CCN(CCC(=O)O)CC3)cn2)nc1-c1ccc(OC)c(C(F)(F)F)c1
>10 µM
CC[C@@H]1CCCN1Cc1sc(NC(=O)c2cnc(N3CCN(CCC(=O)O)CC3)cn2)nc1-c1cc(C2CC2)cc(C(F)(F)F)c1
>10 µM

Just so you know, measured human c-Mpl-introduced Ba/F3 cell proliferative activity EC30 for "C[C@@H]1CCCN1Cc1sc(NC(=O)c2cnc(N3CCN(CCC(=O)O)CC3)cn2)nc1-c1ccc(Cl)c(C(F)(F)F)c1" came out at >10 µM

Looking up Cc1cc(OC(F)(F)F)cc(-c2nc(NC(=O)c3cnc(N4CCN(C(C)C(=O)O)CC4)cn3)sc2CN2CCC[C@H]2C)c1 (some centres unmarked) , I see its human c-Mpl-introduced Ba/F3 cell proliferative activity EC30 listed as >10 µM

Lab note: C[C@@H]1CCCN1Cc1sc(NC(=O)c2cnc(N3CCN(CCC(=O)O)CC3)cn2)nc1-c1cc(Cl)cs1 [Example 50] gave human c-Mpl-introduced Ba/F3 cell proliferative activity EC30 of 2.3 µM

Entry "C[C@@H]1CCCN1Cc1sc(NC(=O)c2cnc(N3CCN(CCC(=O)O)CC3)cn2)nc1-c1cc2ccccc2s1" ; human c-Mpl-introduced Ba/F3 cell proliferative activity EC30 = >10 µM

Entry "C[C@@H]1CN(c2cnc(C(=O)Nc3nc(-c4cc(Cl)cs4)c(CN(C)CC4CC4)s3)cn2)CCN1CCC(=O)O" — recorded human c-Mpl-introduced Ba/F3 cell proliferative activity EC30 = >10 µM

====

Structures can show the parent of a compound that is named as a salt.
Entries below carry reported muscarinic M3 receptor-positive allosteric modulator activity, 10 μM (-fold shift) on human muscarinic M3 receptor (Homo sapiens, UniProt P20309).
Sequence (P20309 whole entry): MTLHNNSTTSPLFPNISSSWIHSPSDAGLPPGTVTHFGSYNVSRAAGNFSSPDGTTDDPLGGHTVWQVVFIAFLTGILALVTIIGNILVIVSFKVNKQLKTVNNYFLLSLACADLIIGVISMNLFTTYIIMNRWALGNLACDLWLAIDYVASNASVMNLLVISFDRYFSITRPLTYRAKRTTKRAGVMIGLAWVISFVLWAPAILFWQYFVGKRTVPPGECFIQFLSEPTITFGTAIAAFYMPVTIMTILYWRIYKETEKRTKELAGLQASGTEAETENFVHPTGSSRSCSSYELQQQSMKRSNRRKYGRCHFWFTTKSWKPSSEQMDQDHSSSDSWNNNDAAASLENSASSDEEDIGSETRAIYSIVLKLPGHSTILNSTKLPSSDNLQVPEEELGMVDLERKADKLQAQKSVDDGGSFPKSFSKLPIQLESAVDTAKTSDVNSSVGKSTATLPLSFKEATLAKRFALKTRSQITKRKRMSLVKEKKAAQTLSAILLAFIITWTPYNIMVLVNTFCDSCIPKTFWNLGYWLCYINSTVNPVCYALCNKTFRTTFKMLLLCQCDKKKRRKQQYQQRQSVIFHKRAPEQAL

C[C@@H]1CCCN1Cc1sc(NC(=O)c2cnc(N3CCN(CCCC(=O)O)CC3)cn2)nc1-c1cc(F)cc(C(F)(F)F)c1
149 -fold shift
C[C@@H]1CCCN1Cc1sc(NC(=O)c2cnc(N3CCN(CCC(=O)O)C[C@H]3C)cn2)nc1-c1cc(Br)cs1
112 -fold shift
COc1ccc(-c2nc(NC(=O)c3cnc(N4CCN(CCC(=O)O)[C@@H](C)C4)cn3)sc2CN2CCC[C@H]2C)cc1C(F)(F)F
87 -fold shift

Sample C[C@@H]1CCCN1Cc1sc(NC(=O)c2cnc(N3CCN(CCC(=O)O)C[C@H]3C)cn2)nc1-c1cc(C(F)(F)F)cs1 [Example 3, dihydrochloride] , system: human muscarinic M3 receptor (Homo sapiens, UniProt P20309). Its muscarinic M3 receptor-positive allosteric modulator activity, 10 μM (-fold shift) is 253 -fold shift

Considering "C[C@@H]1CCCN1Cc1sc(NC(=O)c2cnc(N3CCN(CCC(=O)O)CC3)cn2)nc1-c1ccc(C2CC2)c(C(F)(F)F)c1" , its muscarinic M3 receptor-positive allosteric modulator activity, 10 μM (-fold shift) with human muscarinic M3 receptor (Homo sapiens, UniProt P20309) was recorded as 186 -fold shift

Query "C[C@@H]1CCCN1Cc1sc(NC(=O)c2cnc(N3CCN(CCC(=O)O)C[C@@H]3C)cn2)nc1-c1cc(F)cc(C(F)(F)F)c1" on human muscarinic M3 receptor (Homo sapiens, UniProt P20309); muscarinic M3 receptor-positive allosteric modulator activity, 10 μM (-fold shift) returned: 109 -fold shift

====

Values of muscarinic M3 receptor-positive allosteric modulator activity, 1 μM (-fold shift) reported for human muscarinic M3 receptor (Homo sapiens) appear below.

CC(C(=O)O)N1CCN(c2cnc(C(=O)Nc3nc(-c4cc(Cl)cc(C(F)(F)F)c4)c(CN4CCC[C@H]4C)s3)cn2)CC1 (stereo partly shown)
33 -fold shift
C[C@@H]1CCCN1Cc1sc(NC(=O)c2cnc(N3CCN(CCC(=O)O)CC3)cn2)nc1-c1ccc(Cl)c(C(F)(F)F)c1
31 -fold shift
CCN(Cc1sc(NC(=O)c2cnc(N3CCN(CCC(=O)O)CC3)cn2)nc1-c1cc(F)cc(C(F)(F)F)c1)C(C)C
41 -fold shift
COc1c(F)cc(-c2nc(NC(=O)c3cnc(N4CCN(CCC(=O)O)C[C@@H]4C)cn3)sc2CN2CCC[C@H]2C)cc1C(F)(F)F
19 -fold shift

The recorded muscarinic M3 receptor-positive allosteric modulator activity, 1 μM (-fold shift) with human muscarinic M3 receptor (Homo sapiens) for "CC[C@@H]1CCCN1Cc1sc(NC(=O)c2cnc(N3CCN(CCC(=O)O)CC3)cn2)nc1-c1cc(C2CC2)cc(C(F)(F)F)c1" was 27 -fold shift

# "CC[C@@H]1CCCN1Cc1sc(NC(=O)c2cnc(N3CCN(CCC(=O)O)C[C@@H]3C)cn2)nc1-c1cc(Cl)cs1" with human muscarinic M3 receptor (Homo sapiens): muscarinic M3 receptor-positive allosteric modulator activity, 1 μM (-fold shift) is 36 -fold shift

====

In this section we review reported Increase rate (% of pre) of intravesical pressure values for a set of compounds.
# Tested on: pelvic nerve stimulation-induced elevation of intravesical pressure
# assay_comment: Test Example 4: effect on pelvic nerve stimulation-induced elevation of intravesical pressure in anesthetized rats
# Assay type: in vivo, rat
# experimental_parameters: 3 mg/kg intravenous; maximum effect within one hour; anesthetized SD female rats; pre-treatment = 100%

C[C@@H]1CCCN1Cc1sc(NC(=O)c2cnc(N3CCN(CCC(=O)[O-])CC3)cn2)nc1-c1cc(C#N)cc(C(F)(F)F)c1.[Na+]
134 % of pre
CCC[C@@H]1CCCN1Cc1sc(NC(=O)c2cnc(N3CCN(CCC(=O)[O-])CC3)cn2)nc1-c1cccc(C(F)(F)F)c1.[Na+]
143 % of pre
CC[C@@H]1CCCN1Cc1sc(NC(=O)c2cnc(N3CCN(CCC(=O)O)[C@H](C)C3)cn2)nc1-c1cc(Cl)cs1
172 % of pre
C[C@@H]1CCCN1Cc1sc(NC(=O)c2cnc(N3CCN(CCCC(=O)O)CC3)cn2)nc1-c1cc(F)cc(C(F)(F)F)c1
155 % of pre
C[C@@H]1CCCN1Cc1sc(NC(=O)c2cnc(N3CCN(CCC(=O)O)C[C@H]3C)cn2)nc1-c1cc(F)cc(C(F)(F)F)c1
148 % of pre

Field Increase rate (% of pre) of intravesical pressure (entry "CCOc1ccc(-c2nc(NC(=O)c3cnc(N4CCN(CCC(=O)O)C[C@H]4C)cn3)sc2CN2CCC[C@H]2CC)cc1C(F)(F)F" ) reads 150 % of pre

====

Parameter: Increase rate (% of pre) of intravesical pressure. Scope: all listed entries.
# System: pelvic nerve stimulation-induced elevation of intravesical pressure
# assay_comment: Test Example 4: effect on pelvic nerve stimulation-induced elevation of intravesical pressure in anesthetized rats
# Format: in vivo, rat
# experimental_parameters: 3 mg/kg intravenous; maximum effect within one hour; anesthetized SD female rats; pre-treatment = 100%
Where a name gives a salt, the structure may show the parent alone.

Value of measured Increase rate (% of pre) of intravesical pressure for the entry "C[C@@H]1CCCN1Cc1sc(NC(=O)c2cnc(N3CCN(CCC(=O)O)CC3)cn2)nc1-c1cc(C2CC2)cc(C(F)(F)F)c1" : 126 % of pre

Consider C[C@@H]1CCCN1Cc1sc(NC(=O)c2cnc(N3CCN(CCC(=O)O)CC3)cn2)nc1-c1cc(Cl)cs1 [Example 82] . Its measured Increase rate (% of pre) of intravesical pressure is 138 % of pre

Record summary for "C[C@@H]1CCCN1Cc1sc(NC(=O)c2cnc(N3CCN(CCC(=O)O)CC3)cn2)nc1-c1ccc(Cl)c(C(F)(F)F)c1" : reported Increase rate (% of pre) of intravesical pressure = 142 % of pre

The recorded Increase rate (% of pre) of intravesical pressure for entry "C[C@@H]1CCCN1Cc1sc(NC(=O)c2cnc(N3CCN(CC(=O)O)CC3)cn2)nc1-c1cc(Cl)cc(C(F)(F)F)c1" equals 132 % of pre

Per the records, this compound ( "CC[C@@H]1CCCN1Cc1sc(NC(=O)c2cnc(N3CCN(CCC(=O)O)C[C@@H]3C)cn2)nc1-c1cc(Cl)cs1" ) has Increase rate (% of pre) of intravesical pressure equal to 184 % of pre

Entry "C[C@@H]1CCCN1Cc1sc(NC(=O)c2cnc(N3CCN(CC(=O)O)CC3)cn2)nc1-c1cc(Cl)cs1" — recorded Increase rate (% of pre) of intravesical pressure = 223 % of pre

Measured Increase rate (% of pre) of intravesical pressure of "CC[C@@H]1CCCN1Cc1sc(NC(=O)c2cnc(N3CCN(CCC(=O)O)CC3)cn2)nc1-c1ccc(OC)c(C(F)(F)F)c1" : 149 % of pre

So for "C[C@@H]1CCCN1Cc1sc(NC(=O)c2cnc(N3CCN(CCC(=O)O)CC3)cn2)nc1-c1cc(Cl)cc(C(F)(F)F)c1" , the logged Increase rate (% of pre) of intravesical pressure turned out to be 132 % of pre

Input C[C@@H]1CCCN1Cc1sc(NC(=O)c2cnc(N3CCN(CCC(=O)O)C[C@H]3C)cn2)nc1-c1cc(C(F)(F)F)cs1 [Example 3, dihydrochloride] . Output Increase rate (% of pre) of intravesical pressure: 251 % of pre

Lookup result for "C[C@@H]1CCCN1Cc1sc(NC(=O)c2cnc(N3CCN(CC(=O)O)C[C@H]3C)cn2)nc1-c1cc(F)cc(C(F)(F)F)c1" ; measured Increase rate (% of pre) of intravesical pressure: 175 % of pre

Form: compound = "COc1ccc(-c2nc(NC(=O)c3cnc(N4CCN(CCC(=O)O)[C@@H](C)C4)cn3)sc2CN2CCC[C@H]2C)cc1C(F)(F)F" ; Increase rate (% of pre) of intravesical pressure = 145 % of pre

Notebook: "C[C@@H]1CCCN1Cc1sc(NC(=O)c2cnc(N3CCN(CCC(=O)O)[C@@H](C)C3)cn2)nc1-c1cc(C(F)(F)F)cs1" , Increase rate (% of pre) of intravesical pressure read as 239 % of pre

The compound listed as "C[C@@H]1CCCN1Cc1sc(NC(=O)c2cnc(N3CCN(CC(=O)O)CC3)cn2)nc1-c1ccc(F)c(C(F)(F)F)c1" has a reported Increase rate (% of pre) of intravesical pressure of 129 % of pre
